- assay info: Stability in aqueous solution, amount of related substances under long-term storage conditions
- Type: physicochemical
- reported conditions: glass vial, 25° C., 75% RH
Non-standard residues stand in square brackets, D forms with d. Residues, ends and D or L forms follow the SMILES beside them. Hyp = O=C(O)[C@@H]1C[C@@H](O)CN1
Parameter: Amount of related substances (%; after 12 weeks). Scope: all listed entries.
Give your result in % as a bare value.

In: # input compound: CC(C)C[C@H](NC(=O)CNC(=O)[C@H](CC(N)=O)NC(=O)[C@H](CCC(N)=O)NC(=O)CNC(=O)[C@@H]1C[C@@H](O)CN1)C(=O)N[C@@H](C)C(=O)NCC(=O)N1CCC[C@H]1C(=O)N[C@@H](CCCCN)C(=O)O [YDE-002, HyP-Gly-Gln-Asn-Gly-Leu-Ala-Gly-Pro-Lys] (H-[Hyp]GQNGLAGPK-OH) ; wanted: its Amount of related substances (%; after 12 weeks)
Out: 4.93

In: Next up: CC(C)C[C@H](NC(=O)CNC(=O)[C@H](CCC(=O)O)NC(=O)[C@H](CCC(N)=O)NC(=O)CNC(=O)[C@@H]1C[C@@H](O)CN1)C(=O)N[C@@H](C)C(=O)NCC(=O)N1CCC[C@H]1C(=O)N[C@@H](CCCCN)C(=O)O [YDE-001, HyP-Gly-Gln-Glu-Gly-Leu-Ala-Gly-Pro-Lys] (H-[Hyp]GQEGLAGPK-OH)
Out: 3.92

Data credit: patent US12037415B2
